Test: Half life in healthy human subjects at 12 mg/kg, iv administered as 30 mins infusion every 24 hrs measured on day 4
Type: ADME, organism-based
Set-up: dose 12 mg/kg, route intravenous
Details: in vivo
Value Type: half-life

Prompt: Quick one: half-life for CCCCCCCCCC(=O)N[C@@H](Cc1c[nH]c2ccccc12)C(=O)N[C@H](CC(N)=O)C(=O)N[C@@H](CC(=O)O)C(=O)N[C@@H]1C(=O)NCC(=O)N[C@@H](CCCN)C(=O)N[C@@H](CC(=O)O)C(=O)N[C@H](C)C(=O)N[C@@H](CC(=O)O)C(=O)NCC(=O)N[C@H](CO)C(=O)N[C@@H]([C@H](C)CC(=O)O)C(=O)N[C@@H](CC(=O)c2ccccc2N)C(=O)O[C@@H]1C ?
Response: 7.7 h

Source listed as ChEMBL document CHEMBL1649119.
